Listing of recorded Population Fragmented Nuclei (%) by entry.
test system: Fibroblast; assay: Multiplex assay against human fibroblast; assay type: toxicity, cell-based; settings: 24 h, 1 µM, compound concentration 1 uM, replicate 2

# SMILES_DATA, SYSTEM_UNDER_TEST, Population Fragmented Nuclei (%)
rows = [
    ("CN(c1cc(C(F)(F)F)nc(OCCC(=O)O)n1)c1cccc2c1CCC2", "Fibroblast", 4),
    ("CCOC(=O)CCNc1cc(N2CCc3ccccc3CC2)nc(-c2ccccn2)n1", "Fibroblast", 60),
    ("Cc1c(Nc2ccc(S(=O)(=O)N3CCN(C)CC3)cc2F)nc2ccc(-c3cnn(C4CC4)c3)cn2c1=O", "Fibroblast", 58),
    ("N#Cc1cccc(C(=O)Nc2cc(-c3ccccc3)nn2-c2ccccc2)c1", "Fibroblast", 3),
    ("Cc1ccc(NC(=O)Nc2cc(C(F)(F)F)ccc2F)cc1Nc1ccc2c(c1)NC(=O)/C2=C\\c1ccc[nH]1", "Fibroblast", 61),
]
